- Tgt: BaF3-FLT3-ITD-D835V (Homo sapiens, UniProt P36888, INS600HVDFREYEYD/D835V, cells depend on it)
- Measurement protocol: CTB viability assay CS0048, BaF3-FLT3-ITD-D835V
- Type: cell-based, murine
- Condition set: BaF3-FLT3-ITD-D835V cells, CellTiter Blue viability, 72 hours; read-out: Cell Assay: CS0048: BaF3-FLT3-ITD-D835V CTB:IC50

>  <Compound>
Cc1nn(C)cc1Nc1ncc(-c2ccc(CC(=O)Nc3cc(C4(C(F)(F)F)CC4)on3)c(F)c2)c(Cl)n1

>  <GI50>
10 to 50 nM

$$$$
>  <Compound>
O=C(Cc1ccc(-c2cnc(Nc3cnn(CCO)c3C3CC3)nc2)cc1F)Nc1cc(C2(C(F)(F)F)CC2)on1

>  <GI50>
10 to 50 nM

$$$$
>  <Compound>
COc1nn(C(F)F)cc1Nc1ncc(-c2ccc(CC(=O)Nc3cc(C4(C(F)(F)F)CC4)on3)c(F)c2)c(C)n1

>  <GI50>
50 to 100 nM

$$$$
>  <Compound>
Cn1nccc1Nc1ncc(-c2ccc(CC(=O)Nc3cc(C4(C(F)(F)F)CC4)on3)c(F)c2)cn1

>  <GI50>
10 to 50 nM

$$$$
>  <Compound>
Cn1cc(Nc2ncc(-c3ccc(CC(=O)Nc4cc(C5(C(F)(F)F)CC5)on4)c(F)c3)cn2)c(C(F)(F)F)n1

>  <GI50>
10 to 50 nM

$$$$
>  <Compound>
Cc1nn(C)cc1Nc1ncc(-c2ccc(CC(=O)Nc3cc(C4(C(F)(F)F)CC4)on3)c(F)c2)c(N)n1

>  <GI50>
10 to 50 nM

$$$$
>  <Compound>
COc1cc(Nc2ncc(-c3ccc(CC(=O)Nc4cc(C5(C(F)(F)F)CC5)on4)c(F)c3)cn2)n(C)n1

>  <GI50>
10 to 50 nM

$$$$
>  <Compound>
CCn1cnc(Nc2ncc(-c3ccc(CC(=O)Nc4cc(C5(C(F)(F)F)CC5)on4)c(F)c3)cn2)c1

>  <GI50>
10 to 50 nM

$$$$
>  <Compound>
Cc1nn(C)cc1Nc1ncc(-c2ccc(CC(=O)Nc3cc(C4(C(F)(F)F)CC4)on3)c(F)c2)c(C)n1

>  <GI50>
10 to 50 nM

$$$$
>  <Compound>
Cc1nn(C)c(C)c1Nc1ncc(-c2ccc(CC(=O)Nc3cc(C4(C(F)(F)F)CC4)on3)c(F)c2)cn1

>  <GI50>
10 to 50 nM

$$$$
>  <Compound>
COc1cnccc1Nc1ncc(-c2ccc(CC(=O)Nc3cc(C4(C(F)(F)F)CC4)on3)c(F)c2)cn1

>  <GI50>
50 to 100 nM

$$$$
>  <Compound>
Cn1cnc(Nc2ncc(-c3ccc(CC(=O)Nc4cc(C5(C(F)F)CC5)on4)c(F)c3)cn2)c1

>  <GI50>
10 to 50 nM

$$$$
>  <Compound>
CCn1cncc1Nc1ncc(-c2ccc(CC(=O)Nc3cc(C4(C(F)(F)F)CC4)on3)c(F)c2)cn1

>  <GI50>
50 to 100 nM

$$$$
>  <Compound>
Cn1cc(Nc2ncc(-c3ccc(CC(=O)Nc4cc(C5(C(F)(F)F)CC5)on4)c(F)c3)c(C(F)(F)F)n2)cn1

>  <GI50>
10 to 50 nM

$$$$
>  <Compound>
COc1nn(C)cc1Nc1ncc(-c2ccc(CC(=O)Nc3cc(C4(C(F)(F)F)CC4)on3)c(F)c2)c(C)n1

>  <GI50>
10 to 50 nM

$$$$
>  <Compound>
O=C(Cc1ccc(-c2ccc(Nc3ccccc3)nc2)cc1F)Nc1cc(C2(C(F)(F)F)CC2)on1

>  <GI50>
10 to 50 nM

$$$$
>  <Compound>
CC(O)c1nn(C)cc1Nc1ncc(-c2ccc(CC(=O)Nc3cc(C4(C(F)(F)F)CC4)on3)c(F)c2)cn1 (stereo not drawn)

>  <GI50>
10 to 50 nM

$$$$
>  <Compound>
Cc1cc(C(=O)N(C)C)ccc1Nc1ncc(-c2ccc(CC(=O)Nc3cc(C4(C(F)(F)F)CC4)on3)c(F)c2)cn1

>  <GI50>
10 to 50 nM

$$$$
>  <Compound>
Cc1nc(Nc2cnn(C3CC3)c2C)ncc1-c1ccc(CC(=O)Nc2cc(C3(C(F)(F)F)CC3)on2)c(F)c1

>  <GI50>
10 to 50 nM

$$$$
>  <Compound>
COCCOc1nn(C)cc1Nc1ncc(-c2ccc(CC(=O)Nc3cc(C4(C(F)(F)F)CC4)on3)c(F)c2)cn1

>  <GI50>
10 to 50 nM

$$$$
>  <Compound>
Cc1nn(C)cc1Nc1ncc(-c2ccc(CC(=O)Nc3cc(C4(C(F)(F)F)CC4)on3)c(F)c2)cc1C#N

>  <GI50>
10 to 50 nM

$$$$
>  <Compound>
C=CC(=O)Nc1nn(C)cc1Nc1ncc(-c2ccc(CC(=O)Nc3cc(C4(C(F)(F)F)CC4)on3)c(F)c2)cn1

>  <GI50>
50 to 100 nM

$$$$
>  <Compound>
Cc1nn(C2CC2)cc1Nc1ncc(-c2ccc(CC(=O)Nc3cc(C4(C(F)(F)F)CC4)on3)c(F)c2)c(C)n1

>  <GI50>
10 to 50 nM

$$$$
>  <Compound>
COc1nn(C2CC2)cc1Nc1ncc(-c2ccc(CC(=O)Nc3cc(C4(C(F)(F)F)CC4)on3)c(F)c2)c(C)n1

>  <GI50>
10 to 50 nM

$$$$
>  <Compound>
Cc1c(Nc2ncc(-c3ccc(CC(=O)Nc4cc(C5(C(F)(F)F)CC5)on4)c(F)c3)cn2)ncn1C

>  <GI50>
10 to 50 nM

$$$$
>  <Compound>
COCCn1ncc(Nc2ncc(-c3ccc(CC(=O)Nc4cc(C5(C(F)(F)F)CC5)on4)c(F)c3)cn2)c1C1CC1

>  <GI50>
10 to 50 nM

$$$$
>  <Compound>
CCc1n[nH]cc1Nc1ncc(-c2ccc(CC(=O)Nc3cc(C4(C(F)(F)F)CC4)on3)c(F)c2)cn1

>  <GI50>
10 to 50 nM

$$$$
>  <Compound>
Cn1cncc1Nc1ncc(-c2ccc(CC(=O)Nc3cc(C4(C(F)(F)F)CC4)on3)c(F)c2)cn1

>  <GI50>
10 to 50 nM

$$$$
>  <Compound>
Cc1nc(Nc2cn(C)cn2)ncc1-c1ccc(CC(=O)Nc2cc(C3(C(F)(F)F)CC3)on2)c(F)c1

>  <GI50>
50 to 100 nM

$$$$
>  <Compound>
COc1nn(C2CC2)cc1Nc1ncc(-c2ccc(CC(=O)Nc3cc(C4(C(F)(F)F)CC4)on3)c(F)c2)c(OC)n1

>  <GI50>
10 to 50 nM

$$$$
